Below, each entry is listed alongside its reported pKd.
# target_or_system: Ebola GP ectodomain (Mayinga, Zaire, 1976) with the mucin-like domain deleted (Zaire ebolavirus (Mayinga, 1976), UniProt Q05320 33-650)
Keep it numeric: pKd is minus log10 of the concentration in mol/L.

Past entries and their recorded results:
binder="mAb114 VH A68T Fab (Fab, V domains shown) VH: EVQLVESGGGLIQPGGSLRLSCAASGFALRMYDMHWVRQTIDKRLEWVSAVGPSGDTYYADSVKGRFTVSRENAKNSLSLQMNSLTAGDTAIYYCVRSDRGVAGLFDSWGQGILVTVSS VL: DIQMTQSPSSLSASVGDRITITCRASQAFDNYVAWYQQRPGKVPKLLISAASALHAGVPSRFSGSGSGTHFTLTISSLQPEDVATYYCQNYNSAPLTFGGGTKVEIK" reported_property=pKd observed_measurement=10.00
binder="mAb114 VH D42G Fab (Fab, V domains shown) VH: EVQLVESGGGLIQPGGSLRLSCAASGFALRMYDMHWVRQTIGKRLEWVSAVGPSGDTYYADSVKGRFAVSRENAKNSLSLQMNSLTAGDTAIYYCVRSDRGVAGLFDSWGQGILVTVSS VL: DIQMTQSPSSLSASVGDRITITCRASQAFDNYVAWYQQRPGKVPKLLISAASALHAGVPSRFSGSGSGTHFTLTISSLQPEDVATYYCQNYNSAPLTFGGGTKVEIK" reported_property=pKd observed_measurement=9.70
binder="mAb114 VH M31S Fab (Fab, V domains shown) VH: EVQLVESGGGLIQPGGSLRLSCAASGFALRSYDMHWVRQTIDKRLEWVSAVGPSGDTYYADSVKGRFAVSRENAKNSLSLQMNSLTAGDTAIYYCVRSDRGVAGLFDSWGQGILVTVSS VL: DIQMTQSPSSLSASVGDRITITCRASQAFDNYVAWYQQRPGKVPKLLISAASALHAGVPSRFSGSGSGTHFTLTISSLQPEDVATYYCQNYNSAPLTFGGGTKVEIK" reported_property=pKd observed_measurement=10.00
binder="mAb114 VH I41P-D42G-A68T-S79Y-I113T Fab (Fab, V domains shown) VH: EVQLVESGGGLIQPGGSLRLSCAASGFALRMYDMHWVRQTPGKRLEWVSAVGPSGDTYYADSVKGRFTVSRENAKNSLYLQMNSLTAGDTAIYYCVRSDRGVAGLFDSWGQGTLVTVSS VL: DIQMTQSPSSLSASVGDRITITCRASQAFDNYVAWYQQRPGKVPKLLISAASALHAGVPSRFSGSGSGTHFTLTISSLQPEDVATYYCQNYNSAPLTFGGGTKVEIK" reported_property=pKd observed_measurement=9.72

# input for lookup
Give its pKd value. Item: mAb114 VH D42G-A68T-S79Y Fab (Fab, V domains shown) VH: EVQLVESGGGLIQPGGSLRLSCAASGFALRMYDMHWVRQTIGKRLEWVSAVGPSGDTYYADSVKGRFTVSRENAKNSLYLQMNSLTAGDTAIYYCVRSDRGVAGLFDSWGQGILVTVSS VL: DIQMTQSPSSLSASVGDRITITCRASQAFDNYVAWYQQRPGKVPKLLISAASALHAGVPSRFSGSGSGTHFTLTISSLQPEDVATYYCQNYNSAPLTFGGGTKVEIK 9.72
